biological target: Nitric oxide synthase 1 (Rattus norvegicus, UniProt P29476); experiment: Inhibition of rat recombinant nNOS expressed in Escherichia coli by UV-vis spectrometric analysis
Sequence (P29476 whole entry): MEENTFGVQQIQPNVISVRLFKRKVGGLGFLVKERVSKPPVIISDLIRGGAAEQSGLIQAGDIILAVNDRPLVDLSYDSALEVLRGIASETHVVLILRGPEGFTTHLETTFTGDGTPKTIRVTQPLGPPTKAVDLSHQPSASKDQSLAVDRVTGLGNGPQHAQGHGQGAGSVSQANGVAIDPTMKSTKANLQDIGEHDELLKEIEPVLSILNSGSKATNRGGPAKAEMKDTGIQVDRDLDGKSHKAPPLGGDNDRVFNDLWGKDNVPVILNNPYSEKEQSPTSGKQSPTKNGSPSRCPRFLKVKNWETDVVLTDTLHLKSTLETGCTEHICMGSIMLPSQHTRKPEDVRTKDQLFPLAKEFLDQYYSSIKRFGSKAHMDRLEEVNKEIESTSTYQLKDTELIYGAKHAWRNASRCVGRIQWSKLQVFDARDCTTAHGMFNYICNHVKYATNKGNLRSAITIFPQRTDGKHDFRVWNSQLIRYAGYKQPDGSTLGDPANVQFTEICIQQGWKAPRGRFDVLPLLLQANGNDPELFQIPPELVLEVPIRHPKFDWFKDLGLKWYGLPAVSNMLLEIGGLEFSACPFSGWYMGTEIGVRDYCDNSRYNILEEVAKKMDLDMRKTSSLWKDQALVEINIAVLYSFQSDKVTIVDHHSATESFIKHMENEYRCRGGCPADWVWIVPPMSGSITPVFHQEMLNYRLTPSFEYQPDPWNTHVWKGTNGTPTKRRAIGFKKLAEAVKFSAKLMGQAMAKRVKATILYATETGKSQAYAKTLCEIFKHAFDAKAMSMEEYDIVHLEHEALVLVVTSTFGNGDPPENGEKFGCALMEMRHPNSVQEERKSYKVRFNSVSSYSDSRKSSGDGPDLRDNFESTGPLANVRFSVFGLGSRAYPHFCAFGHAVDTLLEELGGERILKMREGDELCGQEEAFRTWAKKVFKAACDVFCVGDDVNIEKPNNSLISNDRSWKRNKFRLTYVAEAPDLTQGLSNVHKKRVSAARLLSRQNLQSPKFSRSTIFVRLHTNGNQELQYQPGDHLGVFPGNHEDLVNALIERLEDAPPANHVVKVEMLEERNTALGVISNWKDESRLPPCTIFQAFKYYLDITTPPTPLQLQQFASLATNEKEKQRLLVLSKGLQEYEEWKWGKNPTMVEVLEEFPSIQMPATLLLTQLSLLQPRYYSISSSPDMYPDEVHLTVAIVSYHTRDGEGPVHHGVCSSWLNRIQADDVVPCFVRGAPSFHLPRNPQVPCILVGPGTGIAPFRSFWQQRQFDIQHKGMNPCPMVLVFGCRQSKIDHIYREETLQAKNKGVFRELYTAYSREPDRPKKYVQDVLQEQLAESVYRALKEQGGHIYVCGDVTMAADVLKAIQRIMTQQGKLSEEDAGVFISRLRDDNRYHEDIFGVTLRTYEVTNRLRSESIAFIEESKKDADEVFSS
assay readout: Ki

Illustrative cases are given below, each with its answer.
Cc1cc(N)nc(CCc2cccc(CCc3cc(C)nc(N)c3)n2)c1 : 0.195 µM
Cc1cc(N)nc(CCc2ccc3ccc(CCc4cc(C)nc(N)c4)cc3c2)c1 : > 1 µM
Cc1cc(N)nc(CCc2cc(N)cc(CCc3cc(C)cc(N)n3)c2)c1 : 0.085 µM
Cc1cc(C)nc(NCc2ccc3cc(CNc4cc(C)cc(C)n4)ccc3c2)c1 : > 1 µM

Continue with the next compound.
Q) I'd like to know its Ki. The compound in question is Cc1cc(CCc2cccc(CCc3cc(C)nc(N)c3)c2)cc(N)n1
A) > 1 µM

* * *

target: Nitric oxide synthase 3 (Bos taurus, UniProt P29473); assay: Inhibition of bovine recombinant eNOS expressed in Escherichia coli by UV-vis spectrometric analysis
Sequence (P29473 whole entry): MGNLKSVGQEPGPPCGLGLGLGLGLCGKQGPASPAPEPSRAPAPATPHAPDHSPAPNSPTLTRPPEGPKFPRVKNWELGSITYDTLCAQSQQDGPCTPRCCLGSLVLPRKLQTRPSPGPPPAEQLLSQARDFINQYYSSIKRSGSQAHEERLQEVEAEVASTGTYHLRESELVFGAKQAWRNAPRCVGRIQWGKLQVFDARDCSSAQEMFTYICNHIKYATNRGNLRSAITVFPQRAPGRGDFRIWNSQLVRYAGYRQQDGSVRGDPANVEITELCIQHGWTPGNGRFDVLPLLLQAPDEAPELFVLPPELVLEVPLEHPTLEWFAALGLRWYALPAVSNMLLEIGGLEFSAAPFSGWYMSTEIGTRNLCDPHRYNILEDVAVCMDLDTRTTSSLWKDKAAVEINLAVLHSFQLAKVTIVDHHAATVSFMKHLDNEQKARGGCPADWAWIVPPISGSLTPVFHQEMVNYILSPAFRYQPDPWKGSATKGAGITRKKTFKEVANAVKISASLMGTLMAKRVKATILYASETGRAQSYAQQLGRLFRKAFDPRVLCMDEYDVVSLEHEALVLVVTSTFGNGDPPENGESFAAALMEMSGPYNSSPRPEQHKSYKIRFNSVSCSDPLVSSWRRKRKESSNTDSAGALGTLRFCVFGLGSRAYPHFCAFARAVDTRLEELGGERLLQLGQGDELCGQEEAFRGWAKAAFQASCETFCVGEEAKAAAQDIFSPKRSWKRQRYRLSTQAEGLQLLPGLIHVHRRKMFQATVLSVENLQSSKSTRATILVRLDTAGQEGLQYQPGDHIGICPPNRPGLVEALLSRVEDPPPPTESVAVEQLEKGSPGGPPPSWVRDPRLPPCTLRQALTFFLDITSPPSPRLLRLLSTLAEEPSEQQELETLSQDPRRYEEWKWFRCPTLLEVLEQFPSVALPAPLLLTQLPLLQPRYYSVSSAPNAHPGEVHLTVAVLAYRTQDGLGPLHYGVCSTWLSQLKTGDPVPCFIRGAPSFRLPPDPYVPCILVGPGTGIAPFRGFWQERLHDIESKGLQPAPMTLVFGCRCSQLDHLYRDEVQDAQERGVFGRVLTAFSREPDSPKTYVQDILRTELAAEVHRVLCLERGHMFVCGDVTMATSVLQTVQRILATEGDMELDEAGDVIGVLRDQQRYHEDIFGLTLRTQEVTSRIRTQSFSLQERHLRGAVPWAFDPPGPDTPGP
assay readout: pKi
pKi here is simply -log10 of the concentration when that concentration is written in mol/L.

Cc1cc(N)nc(CCc2cccc(CCc3cc(C)nc(N)c3)n2)c1 : 4.70

Q) I'd like to know its pKi. The compound in question is Cc1cc(N)nc(CCc2cc(N)cc(CCc3cc(C)cc(N)n3)c2)c1
A) 5.31

* * *

test: Selectivity ratio of Ki for bovine recombinant eNOS to Ki for rat recombinant nNOS
Ratio Ki: recorded values
Reply with the value as a number alone.

Q) I'd like to know its Ratio Ki. The molecule in question is Cc1cc(N)nc(CCc2ccc3cc(CCc4cc(C)cc(N)n4)ccc3c2)c1
A) 7.22

Q) I'd like to know its Ratio Ki. The molecule in question is Cc1cc(N)nc(CCc2ccc(CCc3cc(C)cc(N)n3)cc2)c1
A) 24.6

Q) I'd like to know its Ratio Ki. The molecule in question is Cc1cc(N)nc(CCc2ccc3ccc(CCc4cc(C)cc(N)n4)cc3c2)c1
A) 14.9

Q) I'd like to know its Ratio Ki. The molecule in question is Cc1cc(N)nc(CCc2cncc(CCc3cc(C)nc(N)c3)c2)c1
A) 156

Q) I'd like to know its Ratio Ki. The molecule in question is Cc1cc(N)nc(CCc2cccc(CCc3cc(C)cc(N)n3)n2)c1
A) 95

Q) I'd like to know its Ratio Ki. The molecule in question is Cc1cc(N)nc(CCc2cccc(CCc3cc(C)nc(N)c3)c2)c1
A) 111

Q) I'd like to know its Ratio Ki. The molecule in question is Cc1cc(N)nc(CCc2cc(N)cc(CCc3cc(C)cc(N)n3)c2)c1
A) 58

* * *

test: Selectivity ratio of Ki for murine macrophage recombinant iNOS to Ki for rat recombinant nNOS
assay readout: Ratio Ki
Reply with the value as a number alone.

Q) I'd like to know its Ratio Ki. The compound in question is Cc1cc(N)nc(CCc2ccc3cc(CCc4cc(C)cc(N)n4)ccc3c2)c1
A) 9.42

* * *

target: Nitric oxide synthase, inducible (Mus musculus); assay: Inhibition of mouse macrophage recombinant iNOS expressed in Escherichia coli by UV-vis spectrometric analysis
Sequence (P29477 whole entry): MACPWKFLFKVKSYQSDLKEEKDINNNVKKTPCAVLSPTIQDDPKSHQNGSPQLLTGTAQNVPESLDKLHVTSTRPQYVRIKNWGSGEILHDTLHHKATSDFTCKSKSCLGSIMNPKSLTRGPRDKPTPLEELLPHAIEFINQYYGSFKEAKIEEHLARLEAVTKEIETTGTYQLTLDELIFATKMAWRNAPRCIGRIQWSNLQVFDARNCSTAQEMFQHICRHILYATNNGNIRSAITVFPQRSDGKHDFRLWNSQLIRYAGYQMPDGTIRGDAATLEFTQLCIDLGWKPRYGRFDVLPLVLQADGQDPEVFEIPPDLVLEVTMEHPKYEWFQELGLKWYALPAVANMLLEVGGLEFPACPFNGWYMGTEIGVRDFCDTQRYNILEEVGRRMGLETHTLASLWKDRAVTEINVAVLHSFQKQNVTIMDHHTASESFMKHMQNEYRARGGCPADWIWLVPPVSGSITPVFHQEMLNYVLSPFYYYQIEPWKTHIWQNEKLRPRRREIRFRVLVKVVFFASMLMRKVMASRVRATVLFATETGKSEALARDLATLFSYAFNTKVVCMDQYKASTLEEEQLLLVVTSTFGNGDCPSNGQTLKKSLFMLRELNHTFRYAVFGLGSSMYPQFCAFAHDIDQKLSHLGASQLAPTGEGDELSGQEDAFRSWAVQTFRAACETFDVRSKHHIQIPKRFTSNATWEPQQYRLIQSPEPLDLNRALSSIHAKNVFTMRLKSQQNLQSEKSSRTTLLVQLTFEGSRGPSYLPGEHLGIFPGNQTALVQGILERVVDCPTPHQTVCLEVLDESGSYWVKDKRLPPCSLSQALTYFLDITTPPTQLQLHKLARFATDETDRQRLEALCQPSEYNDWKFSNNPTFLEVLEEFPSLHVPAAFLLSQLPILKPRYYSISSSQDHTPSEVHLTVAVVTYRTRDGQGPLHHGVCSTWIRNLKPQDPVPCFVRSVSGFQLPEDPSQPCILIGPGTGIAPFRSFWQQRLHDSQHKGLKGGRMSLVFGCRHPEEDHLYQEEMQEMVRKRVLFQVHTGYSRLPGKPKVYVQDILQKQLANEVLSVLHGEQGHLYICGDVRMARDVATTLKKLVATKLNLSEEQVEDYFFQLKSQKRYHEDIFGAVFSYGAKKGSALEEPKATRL
assay readout: Ki (µM)
// return numeric value only (unit: µM, not printed)

Cc1cc(N)nc(CCc2cc(N)cc(CCc3cc(C)cc(N)n3)c2)c1 : 3.4

Q) Recorded Ki for Cc1cc(N)nc(CCc2cccc(CCc3cc(C)nc(N)c3)n2)c1 with Nitric oxide synthase, inducible (Mus musculus), please?
A) 12.6

* * *

test: Selectivity ratio of Ki for murine macrophage recombinant iNOS to Ki for rat recombinant nNOS
assay readout: Ratio Ki
Reply with the value as a number alone.

Cc1cc(N)nc(CCc2cc(N)cc(CCc3cc(C)cc(N)n3)c2)c1 : 40

Q) I'd like to know its Ratio Ki. The compound in question is Cc1cc(N)nc(CCc2cccc(CCc3cc(C)cc(N)n3)n2)c1
A) 48

Q) I'd like to know its Ratio Ki. The compound in question is Cc1cc(N)nc(CCc2ccc3ccc(CCc4cc(C)cc(N)n4)cc3c2)c1
A) 20.1

Q) I'd like to know its Ratio Ki. The compound in question is Cc1cc(N)nc(CCc2cccc(CCc3cc(C)nc(N)c3)c2)c1
A) 71.8

Q) I'd like to know its Ratio Ki. The compound in question is Cc1cc(N)nc(CCc2cncc(CCc3cc(C)nc(N)c3)c2)c1
A) 19

Q) I'd like to know its Ratio Ki. The compound in question is Cc1cc(N)nc(CCc2ccc(CCc3cc(C)cc(N)n3)cc2)c1
A) 24.8
